- EXPERIMENT DESCRIPTION: soluble on expression in E. coli; label from the status in PepcDB or PDB records
QUANTITY: soluble on expression in E. coli

{"columns": ["MACROMOLECULE SEQUENCE", "REPORTED VALUE"],
 "data": [
  ["MIMVSGCQQQKEETPFYYGTWDEGRAPGPTDGVKSATVTFTEDEVVETEVMEGRGEVQLPFMAYKVISQSTDGSIEIQYLGPYYPLKSTLKRGENGTLIWEQNGQRKTMTRIESKTGREEKDEKSKSLEHHHHHH", "soluble"],
  ["GSKGNIRVIARVRPVTKEDGEGPEATNAVTFDADDDSIIHLLHKGKPVSFELDKVFSPQASQQDVFQEVQALVTSCIDGFNVCIFAYGQTGAGKTYTMEGTAENPGINQRALQLLFSEVQEKASDWEYTITVSAAEIYNEVLRDLLGKEPQEKLEIRLCPDGSGQLYVPGLTEFQVQSVDDINKVFEFGHTNRTTEFTNLNEHSSRSHALLIVTVRGVDCSTGLRTTGKLNLVDLAGSERVGKSGAEGSRLREAQHINKSLSALGDVIAALRSRQGHVPFRNSKLTYLLQDSLSGDSKTLMVVQVSPVEKNTSETLYSLKFAERVRSVEL", "soluble"],
  ["IGFRFDDSKGTVFIDGDVEEITGYSTEDFLSHRVKWADLVLPEDQYLIFERINRSVSNPDHSIETEYRIKRKNGEIRWIREFLQKFPEESKNSRQFQGFIHDITGRKKA", "not soluble"],
  ["MDTFGLIQLAELIYEYCGIDFFKNLSSLESKISERLKELGLSCWEYGGYLRVEPKEWDTLIDLITVNETYFFREENLLEEFQKVILPKYKDRTPNNPLRIWSSACSSGEEPYTLAILSEETGLFETGAVEIIASDIDKKVLEKARRGLYNKKSFSFRTMPKEILDKYFISFGDDYKVKDSIRAMVDFRRVNLLDENKLEKVGEVDIVFCRNVLIYFDTKAINKVINSLYKVLRAGGYLFLGHAETITGMNTGFETIYTPSAFYYRKGERH", "not soluble"],
  ["MGSDKIHHHHHHMLSRTADNLYWMTRYVERAENMARILDVSYRMSQLPRNGTDAAVEWEPALIISGQKPDFETRFEEITAGNVIAYMALDPENPSSIVSTLHAARENARAERFVLPQEMFEGLNATWLELQSLSYARLVDWGFREFFEWVKERSHQFLGTTIGTMLQTDGFHFTRLGTFIERADNTARLLDVKYHVLMPDENRLDEAVDYYQWGAVLRAMSALKAYRMVYRDTIKPRQVIDLLTLKREFPRSLHLCYENLHDLLEHLAPGAECTRLTGEMHAKLRYGRIQDITRRGLHRFLTDFITHNAAVSAEIGRTFHLVADIGVQTPVKEAKEAKRADDGGEAEEAGSVQQQRQ", "not soluble"],
  ["MNNHFKCIGIVGHPRHPTALTTHEMLYRWLCDQGYEVIVEQQIAHELQLKNVPTGTLAEIGQQADLAVVVGGDGNMLGAARTLARYDINVIGINRGNLGFLTDLDPDNALQQLSDVLEGRYISEKRFLLEAQVCQQDRQKRISTAINEVVLHPGKVAHMIEFEVYIDETFAFSQRSDGLIISTPTGSTAYSLSAGGPILTPSLDAITLVPMFPHTLSARPLVINSSSTIRLRFSHRRSDLEISCDSQIALPIQEGEDVLIRRCDYHLNLIHPKDYSYFNTLSTKLGWSKKLFMAGDPLEHHHHHH", "not soluble"]
]}
